Test system: Scedosporium aurantiacum CBS 136046
experiment summary: growth inhibition relative to DMSO control (OD600); higher = more antifungal activity, active = 80 or more; extreme values may be limits of the assay
applied conditions: 5 µM; 72 h; 37 °C
Record true (1) whenever growth inhibition is at 20% or higher; record false (0) when lower.

Please review the following examples before continuing.
| compound | class |
| --- | --- |
| CC(C)(C)NC(=O)[C@@H]1CN(Cc2cnc3occc3c2)CCN1C[C@@H](O)C[C@@H](Cc1ccccc1)C(=O)N[C@H]1c2ccccc2C[C@H]1O | false (0) |
| CC(C)Cn1c(=O)n(C)c(=O)c2c(-c3cncn3C)n(Cc3cccc4ccccc34)nc21 | true (1) |
| NC1C2CC3CC(C2)CC1C3 (stereo not drawn) | true (1) |

Problem: Could you verify whether the entry COc1ccc(COc2cc3oc(=O)c4cc(C(C)O)ccc4c3cc2OC)cc1 (stereo not drawn) shows growth inhibition of no less than 20%?
Result: false (0)

Problem: Could you verify whether the entry `Clc1cccc(-c2nnc(-c3ccccc3)o2)c1` shows growth inhibition of no less than 20%?
Result: false (0)

Problem: Could you verify whether the entry `Nc1nc(-c2ccccc2)nc2[nH]nc(Nc3ccc(C(F)(F)F)cc3)c12` shows growth inhibition of no less than 20%?
Result: false (0)

Problem: Could you verify whether the entry `Nc1nc(F)nc2c1ncn2[C@H]1O[C@@H](CO)[C@H](O)[C@@H]1O` shows growth inhibition of no less than 20%?
Result: true (1)

Problem: Could you verify whether the entry `Cc1cc(NS(=O)(=O)c2ccc(-c3ccc(F)cc3F)cc2)no1` shows growth inhibition of no less than 20%?
Result: false (0)

Problem: Could you verify whether the entry `CC(C)(C)NC(=O)[C@@H]1C[C@@H]2CCCC[C@@H]2CN1C[C@@H](O)[C@H](Cc1ccccc1)NC(=O)[C@H](CC(N)=O)NC(=O)c1ccc2ccccc2n1` shows growth inhibition of no less than 20%?
Result: false (0)

Problem: Could you verify whether the entry `CC1(C)CC(NC(=O)C(=O)Nc2ccc(Cl)cc2)CC(C)(C)N1` shows growth inhibition of no less than 20%?
Result: false (0)

Problem: Could you verify whether the entry `CCCCCCCCCN1C[C@@H](O)[C@H](O)[C@@H](O)[C@@H]1CO` shows growth inhibition of no less than 20%?
Result: false (0)

Problem: Could you verify whether the entry `Nc1nc(C(F)(F)F)cc2c1[nH]c(=O)n2Cc1ccccc1` shows growth inhibition of no less than 20%?
Result: false (0)

Problem: Could you verify whether the entry OC1O[C@H](CSc2ccc(F)cc2)[C@@H](O)[C@H]1O (stereo partly drawn) shows growth inhibition of no less than 20%?
Result: false (0)

Problem: Could you verify whether the entry `Cc1oncc1C(=O)Nc1ccc(C(F)(F)F)cc1` shows growth inhibition of no less than 20%?
Result: false (0)

Problem: Could you verify whether the entry `O=C(NCc1ccccc1Cl)c1cnc2ccccc2n1` shows growth inhibition of no less than 20%?
Result: false (0)

Problem: Could you verify whether the entry COc1cc(C2C3=C(CC(C)(C)CC3=O)Nc3ccccc3N2C(C)=O)ccc1OCc1ccccc1 (stereo not drawn) shows growth inhibition of no less than 20%?
Result: false (0)

----------
Tested on: Scedosporium aurantiacum CBS 136046
experiment summary: growth inhibition relative to DMSO control (OD600); higher = more antifungal activity, active = 80 or more; extreme values may be limits of the assay
applied conditions: 5 µM; 72 h; 37 °C
Record yes (1) whenever growth inhibition is at 10% or higher; record no (0) when lower.

Problem: Could you verify whether the entry `Cc1[nH]c2ccccc2c1CC(=O)N[C@@H](Cc1ccccc1)C(=O)N(C)c1ccccc1` shows growth inhibition of no less than 10%?
Result: yes (1)

----------
Test system: Scedosporium aurantiacum CBS 136046
experiment summary: growth inhibition relative to DMSO control (OD600); higher = more antifungal activity, active = 80 or more; extreme values may be limits of the assay
applied conditions: 5 µM; 72 h; 37 °C
Record Met whenever growth inhibition is at 20% or higher; record Not met when lower.

| molecule | class |
| --- | --- |
| O=C(NCc1cccc2ccccc12)c1cccs1 | Not met |
| CC(C)CCN1C(=O)C(C2=NS(=O)(=O)c3cc(NS(C)(=O)=O)ccc3N2)=C(O)[C@@H]2[C@H]3CC[C@H](C3)[C@@H]21 | Met |
| CCCCc1ccc(-c2nc(C)c(C(=O)OC)s2)cc1 | Not met |
| NC(=O)c1nccn([C@@H]2O[C@H](CO)[C@@H](O)[C@H]2O)c1=O | Not met |

Problem: Could you verify whether the entry `Nc1nnnn1CCOc1c2[nH]c3ccc(Cl)cc3c2cc2c1[nH]c1ccc(Cl)cc12` shows growth inhibition of no less than 20%?
Result: Met

Problem: Could you verify whether the entry `Nc1nc(-c2ccccc2)nc2c1ncn2[C@@H]1O[C@H](COS(=O)(=O)NC(=O)c2ccccc2O)[C@@H](O)[C@H]1O` shows growth inhibition of no less than 20%?
Result: Met

Problem: Could you verify whether the entry `Nc1nc(=O)c(Br)c(-c2ccccc2)[nH]1` shows growth inhibition of no less than 20%?
Result: Not met

Problem: Could you verify whether the entry C[C@H](NC(CC(=O)c1ccccc1C(F)(F)F)C(=O)O)c1ccccc1 (some centres not stated) shows growth inhibition of no less than 20%?
Result: Not met

----------
Tested on: Scedosporium aurantiacum CBS 136046
experiment summary: growth inhibition relative to DMSO control (OD600); higher = more antifungal activity, active = 80 or more; extreme values may be limits of the assay
applied conditions: 5 µM; 72 h; 37 °C
observable: growth inhibition

Consider the following illustrative entries.
| structure as smiles | assayed system | growth inhibition |
| --- | --- | --- |
| O=C(/C=C\n1cnc(-c2cc(C(F)(F)F)cc(C(F)(F)F)c2)n1)NNc1ccccn1 | Scedosporium aurantiacum CBS 136046 | 24.4% (inactive) |
| CCOC(=O)/C=C/[C@H](C[C@@H]1CCNC1=O)NC(=O)[C@H](CC)n1cccc(NC(=O)c2cc(C)on2)c1=O | Scedosporium aurantiacum CBS 136046 | 2% (inactive) |
| O=C(Nc1[nH]c(=O)ncc1F)c1ccccc1 | Scedosporium aurantiacum CBS 136046 | 5.77% (inactive) |
| COc1cc(NS(=O)(=O)c2ccc(C)cc2)c2ncccc2c1 | Scedosporium aurantiacum CBS 136046 | 27.9% (inactive) |

Measured growth inhibition, `O=C(O)c1cc(-c2ccc(Br)cc2)nc2ccc(Cl)cc12` : 15.5% (inactive)

----------
Test system: Scedosporium aurantiacum CBS 136046
experiment summary: growth inhibition relative to DMSO control (OD600); higher = more antifungal activity, active = 80 or more; extreme values may be limits of the assay
applied conditions: 5 µM; 72 h; 37 °C
Each entry below carries its reported growth inhibition.
Record the value in %, omitting the unit from your answer.

Consider the following illustrative entries.
| molecule | growth inhibition / % |
| --- | --- |
| CC(C)(C)c1cc(C(=O)/C(C#N)=N/Nc2cccc(Cl)c2)no1 | 35.3 |
| CCOc1noc2cc(OCCC3CCN(c4ccc(C)nn4)CC3)ccc12 | 37.3 |
| N#C/C(=C1/SC[C@H](c2ccc(Cl)cc2Cl)S1)n1ccnc1 | 85.6 |

Measured growth inhibition, `COc1ccc(SCC(=O)N2c3ccccc3Sc3ccccc32)cc1` : 19.3

Measured growth inhibition, `O=c1cc(OCc2ccccc2)ccn1Cc1ccccc1` : 9.92

Measured growth inhibition, `CC(C)(C)c1cccc(-c2nc3cc(C(=N)N)ccc3[nH]2)c1O` : 17.4

Measured growth inhibition, `Fc1ccc2c(/C=C/c3nnn[nH]3)c[nH]c2c1` : 4.45

Measured growth inhibition, CC(=O)N1CCN(c2ccc(OCC3COC(Cn4ccnc4)(c4ccc(Cl)cc4Cl)O3)cc2)CC1 (stereo not drawn) : 83.2

----------
Each entry below carries its reported growth inhibition.
Test system: Scedosporium aurantiacum CBS 136046;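 further: conidia screened in RPMI 1640 medium under 5% CO2, growth read by spectrophotometer, medium with 0.5% DMSO serving as the untreated reference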
experiment summary: growth inhibition relative to DMSO control (OD600); higher = more antifungal activity, active = 80 or more; extreme values may be limits of the assay
applied conditions: 5 µM; 72 h; 37 °C
Record the value in %, omitting the unit from your answer.

Consider the following illustrative entries.
| molecule | assay result |
| --- | --- |
| O=C(NCCN1CCCCC1)c1cccc(C(F)(F)F)c1 | 10.1 |
| Cc1cc(O)c2c(c1)C(=O)c1c(I)c(O)c(I)c(O)c1C2=O | 2.05 |
| CCc1ccc(C2CC(C(F)(F)F)n3ncc(C(=O)NCc4ccc(OC)cc4)c3N2)cc1 (stereo unspecified) | 34.5 |
| OCCC#Cc1nc(-c2ccc(F)cc2)c(-c2ccncc2)n1CCCc1ccccc1 | 13.8 |
| COc1ccc2sc3c(c2c1)NC(C)CNC3=O (stereo unspecified) | 7.39 |

Moving on to another molecule below.
Here `CCCNc1ccc(S(=O)(=O)Nc2cc(C)on2)cc1` was tested on Scedosporium aurantiacum CBS 136046, and its growth inhibition came to 0.262

Origin of values: the supplement of paper PMC9897528
